Reported melting point values for the following molecules.

Value lookup for melting point; key = c1ccc(Cc2cnc(-c3ccccc3)c(-c3ccccc3)n2)cc1
118 to 119 °C

Value lookup for melting point; key = CC(=O)OC1COc2ccc3ncccc3c2C1 (stereo not given)
125 to 127 °C

----------
Reported property: melting point

INSERT INTO measurements (molecule, reported_property, reported_measurement) VALUES
  ('CCOC(=O)C1C2C(=O)N(Cc3ccccc3)C(=O)C12 (stereo not given)', 'melting point', '190 °C'),
  ('CC(=O)NC1(c2ccccc2)CCN(CC[C@@H](c2ccc(Cl)c(Cl)c2)[C@@H](O)c2ccnn2-c2ccccc2)CC1 (racemic)', 'melting point', '115 to 118 °C'),
  ('CNC(=O)/C(=N/OC)c1ccccc1COc1cccc(SC)n1', 'melting point', '130 to 132 °C'),
  ('CCOC(=O)C1=C(COCc2nc(C(=O)OCC)cs2)NC(C)=C(C(=O)OC)C1c1ccccc1Cl (stereo not given)', 'melting point', '111 to 113 °C'),
  ('Cc1cc(C2=NOC(c3cc(Cl)cc(Cl)c3)(C(F)(F)F)C2)ccc1C(=O)NC1CON(CCO)C1=O (stereo not given)', 'melting point', '78 °C'),
  ('Cc1csc(C(=O)O)c1NC(=O)OC(C)(C)C', 'melting point', '179 to 180 °C'),
  ('O=C(O)c1oc2ccccc2c1CCc1ccccc1', 'melting point', '169 to 172 °C'),
  ('COc1cc2ncc3c4cc5c(cc4ccc3c2cc1OC)OCO5', 'melting point', '225 °C');

Value lookup for melting point; key = O=C(Nc1cccc(-c2nnn[nH]2)c1)C(=O)N1CCC(Cc2ccc(F)cc2)CC1
107 to 112 °C

Value lookup for melting point; key = COc1c(C)c(C)c(OC)c(CC[C@](C)(O)CO)c1C
82 to 84 °C

Sourced from a melting point compilation (Tetko et al.; mined from patent text by program, amines drawn as free bases though some values may be those of a salt)
